Biological target: ferroportin (Homo sapiens, UniProt Q9NP59)
Sequence (Q9NP59 whole entry): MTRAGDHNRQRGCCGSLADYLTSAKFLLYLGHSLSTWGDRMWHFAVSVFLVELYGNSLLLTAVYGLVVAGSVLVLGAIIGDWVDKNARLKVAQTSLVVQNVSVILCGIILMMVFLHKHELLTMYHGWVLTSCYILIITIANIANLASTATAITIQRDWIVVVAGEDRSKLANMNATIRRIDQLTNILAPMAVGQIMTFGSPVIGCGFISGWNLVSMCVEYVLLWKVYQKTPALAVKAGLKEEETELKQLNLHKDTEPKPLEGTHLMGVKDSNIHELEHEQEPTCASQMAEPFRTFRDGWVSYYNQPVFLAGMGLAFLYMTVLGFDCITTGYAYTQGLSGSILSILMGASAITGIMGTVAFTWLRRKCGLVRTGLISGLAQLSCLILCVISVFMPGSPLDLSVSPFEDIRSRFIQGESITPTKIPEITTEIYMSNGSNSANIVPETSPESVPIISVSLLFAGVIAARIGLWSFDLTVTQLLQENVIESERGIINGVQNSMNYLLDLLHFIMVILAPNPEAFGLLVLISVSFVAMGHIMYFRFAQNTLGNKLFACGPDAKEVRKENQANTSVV
Test: FPN activity assay: ferroportin-GFP internalization/degradation in HEK293 cells
Format: cell-based
Set-up: expressed in transfected cells
Details: ferroportin-GFP internalization/degradation, HEK293 cells; Table 6E; read-out: FPN IC50
Positions of bridges follow the written chain, without caps; N, C: chain ends. Non-standard residues stand in square brackets, D forms with d. Residues, ends and D or L forms follow the SMILES beside them. Groups on a side chain read outwards from the residue. *: point of attachment. X1 = C[N+](C)(CCNC(=O)CCCCCCCCCCCCCCCCC(=O)O)CC(=O)*; Dip = N[C@H](C(=O)O)C(c1ccccc1)c1ccccc1; β3hF = N[C@H](CC(=O)O)Cc1ccccc1; Isovaleryl = CC(C)CC(=O)*; Ahx = NCCCCCC(=O)O
reported.property: DC50

[
  {
    "compound": "CC(C)CC(=O)N[C@@H](CCC(=O)O)C(=O)N[C@H](C(=O)N[C@@H](Cc1c[nH]cn1)C(=O)N[C@H](C(=O)N1CCC[C@H]1C(=O)N[C@H]1CSSC[C@@H](C(=O)N[C@@H](CCCCNC(=O)CCCCCNC(=O)C[N+](C)(C)CCNC(=O)CCCCCCCCCCCCCCCCC(=O)O)C(=O)N[C@H](CC(=O)N[C@H](CCCCN)C(N)=O)Cc2ccccc2)NC1=O)C(c1ccccc1)c1ccccc1)[C@@H](C)O [compound 312] (Isovaleryl-ETH[Dip]PCCK([Ahx-X1])[β3hF][dK]-NH2; disulfide 6-7)",
    "result": "10 to 100 nM"
  }
]
